Target: AsPC-1 HiBiT-KRASG12D (Homo sapiens, UniProt P01116, G12D)
Construct: insert the HiBiT tag onto the N-terminus of one or more of the endogenous KRAS alleles; endogenous in cells; host or cells: AsPC-1 (ATCC CRL-1682), CRISPR-Cas9 knock-in clone, one tagged allele
Sequence (P01116 1-188 isoform P01116-2 G12D): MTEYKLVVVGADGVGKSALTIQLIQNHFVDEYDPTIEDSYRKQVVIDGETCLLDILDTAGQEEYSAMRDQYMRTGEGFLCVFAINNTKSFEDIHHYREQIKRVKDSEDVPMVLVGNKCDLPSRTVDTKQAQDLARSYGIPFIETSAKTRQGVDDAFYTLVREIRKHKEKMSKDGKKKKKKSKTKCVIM
Test: HiBiT degradation assay (G12D), AsPC-1 HiBiT-KRASG12D cells
Type: cell-based
Details: ASPC1, AsPC-1 HiBiT-KRASG12D cells, 24 hours treatment, maximum degradation observed
value type: Dmax

CCc1cccc2cc(O)cc(-c3ncc4c(N5CC6CCC(C5)N6)nc(OC[C@]56CCCN5[C@H](COC(=O)N5CC(COc7cc([C@@H](C(=O)N8C[C@H](O)C[C@H]8C(=O)N[C@@H](C)c8ccc(-c9scnc9C)cc8)C(C)C)on7)C5)CC6)nc4c3F)c12 [Compound 122]	20 to 60%
CCc1cccc2cc(O)cc(-c3ncc4c(N5CC6CCC(C5)N6)nc(OCCN5CCC(CCOCC(=O)N[C@H](C(=O)N6C[C@H](O)C[C@H]6C(=O)N[C@@H](C)c6ccc(-c7scnc7C)cc6)C(C)(C)C)CC5)nc4c3F)c12 [Compound 13]	80 to 100%
CCc1cccc2cc(O)cc(-c3ncc4c(N5CC6CCC(C5)N6)nc(OCCN5CCC(CC6CN(c7cnc(C(=O)N[C@H](C(=O)N8C[C@H](O)C[C@H]8C(=O)N[C@@H](C)c8ccc(-c9scnc9C)cc8)C(C)(C)C)cn7)C6)CC5)nc4c3F)c12 [Compound 279]	60 to 80%

Looking for the measured Dmax of CCc1cccc2cc(O)cc(-c3ncc4c(N5CC6CCC(C5)N6)nc(OC[C@]56CCCN5[C@@H](COC(=O)NCc5cc([C@@H](C(=O)N7C[C@H](O)C[C@H]7C(=O)N[C@@H](C)c7ccc(-c8scnc8C)cc7)C(C)C)on5)CC6)nc4c3F)c12 [Compound 103] , can you help?
20 to 60%

How about CCc1cccc2cc(O)cc(-c3ncc4c(N5CC6CCC(C5)N6)nc(OC[C@]56CCCN5[C@H](COC(=O)N5CCN(c7cc([C@H](C(=O)N8C[C@H](O)C[C@H]8C(=O)N[C@@H](C)c8ccc(-c9scnc9C)cc8)C(C)C)on7)[C@H](C)C5)CC6)nc4c3F)c12 [Compound 130] ?
80 to 100%

Likewise for CCc1cccc2cc(O)cc(-c3ncc4c(N5CC6CCC(C5)N6)nc(OCCN5CCN(CC6CN(c7cc([C@H](C(=O)N8C[C@H](O)C[C@H]8C(=O)N[C@@H](C)c8ccc(-c9scnc9C)cc8)C(C)C)on7)C6)CC5)nc4c3F)c12 [Compound 220] ?
80 to 100%

One more compound: CCc1cccc2cc(O)cc(-c3ncc4c(N5CC6CCC(C5)N6)nc(OCCN5CCC(O)(CC6CCN(c7cc([C@@H](C(=O)N8C[C@H](O)C[C@H]8C(=O)N[C@@H](C)c8ccc(-c9scnc9C)cc8)C(C)C)on7)CC6)CC5)nc4c3F)c12 [Compound 205]
20 to 60%

Record: Cc1ncsc1-c1ccc([C@H](C)NC(=O)[C@@H]2C[C@@H](O)CN2C(=O)[C@H](c2cc(OC3CN(C(=O)OC[C@@H]4CC[C@@H](COc5nc(N6CC7CCC(C6)N7)c6cnc(-c7cc(O)cc(Cl)c7C7CC7)c(F)c6n5)N4C)C3)no2)C(C)C)cc1 [Compound 287]
< 20%

Can you handle CCc1cccc2cc(O)cc(-c3ncc4c(N5CC6CCC(C5)N6)nc(OC[C@@H]5CC[C@@H](COC(=O)N6CCN(c7cc([C@H](C(=O)N8C[C@H](O)C[C@H]8C(=O)N[C@@H](C)c8ccc(-c9scnc9C)cc8)C(C)C)on7)[C@H](C)C6)N5C)nc4c3F)c12 [Compound 301] next?
80 to 100%

Similarly, C#Cc1c(F)ccc2cc(O)cc(-c3ncc4c(N5CC6CCC(C5)N6)nc(OC[C@]56CCCN5[C@H](COC(=O)N5CC(Oc7cc([C@@H](C(=O)N8C[C@H](O)C[C@H]8C(=O)N[C@@H](C)c8ccc(-c9scnc9C)cc8)C(C)C)on7)C5)CC6)nc4c3F)c12 [Compound 303] ?
60 to 80%

Thanks! And CCc1cccc2cccc(-c3ncc4c(N5CC6CCC(C5)N6)nc(OC[C@]56CCCN5[C@H](COC(=O)N5CC(Oc7cc([C@H](C(=O)N8C[C@H](O)C[C@H]8C(=O)N[C@@H](C)c8ccc(-c9scnc9C)cc8)C(C)C)on7)C5)CC6)nc4c3F)c12 [Compound 225] ?
80 to 100%

And then CCc1cccc2cc(O)cc(-c3ncc4c(N5CC6CCC(C5)N6)nc(OC[C@@]56CCCN5[C@H](COC(=O)N5CCC(Oc7cc([C@H](C(=O)N8C[C@H](O)C[C@H]8C(=O)N[C@@H](C)c8ccc(-c9scnc9C)cc8)C(C)C)on7)CC5)CC6)nc4c3F)c12 [Compound 117] , what is it?
80 to 100%

Can you check CCc1cccc2cc(O)cc(-c3ncc4c(N5CC6CCC(C5)N6)nc(OCCN5CCC(F)(CN6CCN(c7cc([C@@H](C(=O)N8C[C@H](O)C[C@H]8C(=O)N[C@@H](C)c8ccc(-c9scnc9C)cc8)C(C)C)on7)[C@H](C)C6)CC5)nc4c3F)c12 [Compound 224] next?
20 to 60%

Now consider CCc1cccc2cc(O)cc(-c3ncc4c(N5CC6CCC(C5)N6)nc(OCCN5CCC(F)(CN6CCN(c7cc([C@@H](C(=O)N8C[C@H](O)C[C@H]8C(=O)N[C@@H](C)c8ccc(-c9scnc9C)cc8)C(C)C)on7)C[C@@H]6C)CC5)nc4c3F)c12 [Compound 196] .
20 to 60%

For CCc1cccc2cc(O)cc(-c3ncc4c(N5CC6CCC(C5)N6)nc(OC[C@@H]5CC[C@@H](COC(=O)N6CC(Oc7cc([C@H](C(=O)N8C[C@H](O)C[C@H]8C(=O)N[C@@H](C)c8ccc(-c9scnc9C)cc8)C(C)C)on7)C6)N5C)nc4c3F)c12 [Compound 294] then?
80 to 100%

Hey, just so you know, these numbers are from patent US20250206732A1.
